viability values, listed per item
assay: reversal of MRP1-mediated doxorubicin resistance, pilot screen, H69AR cells, doxorubicin co-treatment (AID 601); conditions: H69AR cells + 2 uM doxorubicin, CellTiter-Glo, 72 h; measured here: viability with 2 uM doxorubicin; at 10 µM; stronger effect = lower value
Reported Property: viability

Compound: COc1ccc(CCNS(=O)(=O)c2ccc3c(c2)CCN3C(=O)CCC(=O)O)cc1OC
Reported Property: viability
Result: 89.8%

Compound: CC(C)C(c1nnnn1C1CCCC1)N1CCCc2ccccc21 (centres undefined)
Reported Property: viability
Result: 91.2%

Compound: O=S1(=O)CCN2C(=N1)SC1=C2CCN(Cc2ccccc2)C1
Reported Property: viability
Result: 90.2%

Compound: Cc1ccc(NC(=O)CSc2nnc(CCCCCNC(=O)OC(C)(C)C)o2)c(C)c1
Reported Property: viability
Result: 91.4%

Compound: Cc1cc(C(C)(C)C)c(O)c(C)c1CC1=NCCN1
Reported Property: viability
Result: 90.3%

Compound: O=C(Nc1ccccn1)N1CCOCC1
Reported Property: viability
Result: 89.1%

Compound: CSc1ccccc1NC(=O)c1noc2c1CCC2
Reported Property: viability
Result: 88.5%

Compound: O=C(COc1ccccc1Cl)NCCCN1CCOCC1
Reported Property: viability
Result: 91.9%

Compound: COc1ccc(C)cc1S(=O)(=O)N(C)CC(=O)Nc1ccc2c(c1)OCO2
Reported Property: viability
Result: 88.1%

----------
assay: growth inhibitors of H69AR lung tumor, primary screen, human, duplicate replicates (AID 580); details: H69AR lung tumor cells viability, ATP luminescence, 72 h; at 10 µM; stronger effect = lower value;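 note: 100% = mean luminescence of untreated wells and 0% = no signal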
Label 1 (yes) when viability < 90%; otherwise 0 (no).

Compound: CCCNC(=O)NC1C(NC(=O)NCCC)N(C)C(=O)N1C (configuration not stated)
Category Label: 0 (no)
//
Compound: O=C(O)c1ccc2c3c(ncnc13)-c1ccccc1C2=O
Category Label: 1 (yes)
//
Compound: O=C(Cn1cnc2c(cnn2-c2ccc(F)cc2)c1=O)N1CCN(c2ccccc2)CC1
Category Label: 1 (yes)
//
Compound: COC(=O)CSC1=C(C#N)C(c2ccccc2)CC(=O)N1 (configuration not stated)
Category Label: 1 (yes)
//
Compound: C(=C\c1ccccc1)/CSc1nnc(-c2ccccn2)n1Cc1ccco1
Category Label: 1 (yes)
//
Compound: COc1ccc(-c2nnn(CC(=O)c3ccc4c(c3)OCCO4)n2)cc1OC
Category Label: 1 (yes)
//
Compound: CCCCc1c(O)nc(SCC(=O)Nc2ccc3c(c2)CCC3)[nH]c1=O
Category Label: 0 (no)
//
Compound: O=C(O)C1CSC2c3ccccc3C(=O)N12 (configuration not stated)
Category Label: 0 (no)
//
Compound: O=C(NC(NC1CCS(=O)(=O)C1)C(=O)c1cccs1)c1ccccc1 (configuration not stated)
Category Label: 0 (no)
//
Compound: O=C(NC1(C(F)(F)F)NC(=O)N(Cc2ccco2)C1=O)c1cccnc1 (configuration not stated)
Category Label: 0 (no)
//
Compound: CS(=O)(=O)N(CC(=O)N1CCc2ccccc2C1)c1ccc2c(c1)OCO2
Category Label: 0 (no)
//
Compound: Cc1ccc(C(C(=O)NC2CCCCC2)N(C(=O)c2csnn2)C2CCCC2)o1 (configuration not stated)
Category Label: 1 (yes)
//
Compound: CC1CN(C(=O)CSc2ncnc3sccc23)CC(C)O1 (configuration not stated)
Category Label: 0 (no)
//
Compound: CCOc1ccccc1NC(=O)CN(C)S(=O)(=O)c1cccc2nsnc12
Category Label: 1 (yes)
//
Compound: CCOC(=O)c1c(NC(=O)Cn2c(=O)oc3ccccc32)oc(C)c1C(C)=O
Category Label: 0 (no)
